Tested on: HEK-293T
Test: Incucyte cell viability with HEK293T; note: unitless GR value; below 1 slowed growth and below 0 cell loss
Assay type: toxicity, cell-based
Conditions: human, 12 h, 10 µM, compound concentration 10 uM, replicate number 2
Classification by Growth Rate | ranges: low bin: < -0.2; mid bin: ≥ -0.2 and < 0.5; high bin: ≥ 0.5

>>> df
                                        mol  assignedclass
0  CNS(=O)(=O)c1ccc(N(C)C)c(Nc2ncnc3cc(OC)c(OC)cc23)c1       high bin
1      CC(C)Oc1ccc(Cc2ccc(NC3=NCCN3)cc2)cc1        mid bin
2  Cc1c(-c2c(F)cc(C(N)=O)c3[nH]c4c(c23)CC[C@H](C(C)(C)O)C4)cccc1-n1c(=O)c2cccc(F)c2n(C)c1=O        low bin
3  CNc1nc(NCc2ncccn2)c2c(-c3ccc4ncccc4c3)c[nH]c2n1       high bin
4  Cc1c[nH]c(-c2cnc(NCCNc3ccc(C#N)cn3)nc2-c2ccc(Cl)cc2Cl)n1        mid bin
5  O=C(Nc1ccccc1Cl)c1cnc2ccc(C3CCNCC3)cn12.O=C(O)C(=O)O        low bin
6  NS(=O)(=O)c1cncc(-c2nc(NCc3ccccn3)c3c(-c4ccccc4)cccc3n2)c1        mid bin
